This section presents compounds with their documented pIC50 values.
test: Cytotoxicity against HMLE cells; type: toxicity, cell-based; conditions: human
pIC50: −log10 of the molar value.
Measured Attribute: pIC50

INSERT INTO assay_data (compound, measured_attribute, number) VALUES
  ('CC(C)=C[C@H]1C[C@H](C)[C@]2(CC[C@]3(C)C[C@H]4[C@H]5/C(=C\C[C@H]32)C(O)O[C@H]5C[C@@]4(C)O)O1 (stereo partly drawn)', 'pIC50', 4.30),
  ('CC(C)=C[C@H]1C[C@H](C)[C@]2(CC[C@]3(C)C[C@H]4[C@H]5/C(=C\C[C@H]32)CO[C@@]5(O)C[C@@]4(C)O)O1', 'pIC50', 4.59),
  ('CC(C)=C[C@H]1C[C@H](C)[C@]2(CC[C@]3(C)C[C@H]4[C@H]5/C(=C\C[C@H]32)C(=O)O[C@H]5C[C@@]4(C)O)O1 [OPHIOBOLIN A LACTONE]', 'pIC50', 4.04);

----------
assay: Selectivity index, ratio of IC50 for cytotoxicity against HMLE cells to IC50 for cytotoxicity against human HMLE cells expressing Twist EMT+; format: toxicity, cell-based; settings: HMLE cells and HMLE cells expressing Twist (EMT+), read-out: Ratio IC50
This section presents compounds with their documented selectivity ratio values.
Measured Attribute: selectivity ratio

INSERT INTO assay_data (compound, result) VALUES
  ('CC(C)=C[C@H]1C[C@H](C)[C@]2(CC[C@]3(C)C[C@H]4[C@H]5/C(=C\C[C@H]32)C(=O)O[C@H]5C[C@@]4(C)O)O1', '~1.4'),
  ('CC(C)=C[C@H]1C[C@H](C)[C@]2(CC[C@]3(C)C[C@H]4[C@H]5/C(=C\C[C@H]32)CO[C@@]5(O)C[C@@]4(C)O)O1', '~2.9'),
  ('CC(C)=C[C@H]1C[C@H](C)[C@]2(CC[C@]3(C)C[C@H]4[C@H]5/C(=C\C[C@H]32)C(O)O[C@H]5C[C@@]4(C)O)O1 (stereo partly specified)', '~2.2'),
  ('CC(C)=C[C@H]1C[C@H](C)[C@]2(CC[C@]3(C)C[C@H]4[C@H](C(=O)C[C@@]4(C)O)/C(C=O)=C\C[C@H]32)O1', '~2.1'),
  ('CC(C)=C[C@H]1C[C@H](C)[C@]2(CC[C@]3(C)C[C@H]4[C@@H](/C(CO)=C\C[C@H]32)[C@@H](O)C[C@@]4(C)O)O1', '~1'),
  ('CC(C)=C[C@H]1C[C@H](C)[C@]2(CC[C@]3(C)C[C@H]4[C@H]5[C@@H](CC[C@H]32)[C@H](O)O[C@H]5C[C@@]4(C)O)O1', '~0.47');

----------
experiment: Cytotoxicity against HMLE cells; type: toxicity, cell-based; conditions: human
pIC50: −log10 of the molar value.
Measured Attribute: pIC50

INSERT INTO assay_data (chemical_smiles, number) VALUES
  ('CC(C)=C[C@H]1C[C@H](C)[C@]2(CC[C@]3(C)C[C@H]4[C@H](C(=O)C[C@@]4(C)O)/C(C=O)=C\C[C@H]32)O1', 7.20),
  ('CC(C)=C[C@H]1C[C@H](C)[C@]2(CC[C@]3(C)C[C@H]4[C@@H](/C(CO)=C\C[C@H]32)[C@@H](O)C[C@@]4(C)O)O1', 3.85),
  ('CC(C)=C[C@H]1C[C@H](C)[C@]2(CC[C@]3(C)C[C@H]4[C@H]5[C@@H](CC[C@H]32)[C@H](O)O[C@H]5C[C@@]4(C)O)O1', 4.24);

Attribution: ChEMBL document CHEMBL6177944
